molecular target: Calpain-2 catalytic subunit (Sus scrofa); experiment: pig calpain II inhibitor potency, dose response, biochemical, fluorogenic peptide substrate (AID 1420); type: functional
Sequence (P43367 whole entry): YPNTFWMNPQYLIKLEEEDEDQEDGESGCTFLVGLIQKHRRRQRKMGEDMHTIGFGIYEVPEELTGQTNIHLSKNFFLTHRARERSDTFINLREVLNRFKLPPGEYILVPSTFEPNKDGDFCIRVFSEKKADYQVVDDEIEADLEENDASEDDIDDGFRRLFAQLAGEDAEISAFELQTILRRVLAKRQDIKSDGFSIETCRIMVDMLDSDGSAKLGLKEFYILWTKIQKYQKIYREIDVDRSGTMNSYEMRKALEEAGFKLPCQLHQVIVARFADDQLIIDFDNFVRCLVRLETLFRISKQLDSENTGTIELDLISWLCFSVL
Active and inactive are the calls of the source. No rule for the calls is given here.
Property: IC50

Please supply the value of reported IC50 for the item Cc1cc(C(=O)Nc2ccc(N3CCCC3)c(Cl)c2)ccc1[N+](=O)[O-] 2990 nM (not active)

Determine from records and report IC50 for Cc1ccc(NS(=O)(=O)c2cc(C(=O)NCCSC3CCCCC3)ccc2C)cc1 > 50000 nM (not active)

In one line, give reported IC50 of the entry S=C(c1ccc(N2CCCC2)cc1)N1CCCCC1 . 12100 nM (active)

Quote IC50 reported for O=C(NCCc1ccccn1)c1ccc(OC(F)F)cc1 please. < 400 nM (not active)

Determine its reported IC50: CC(=C/C(=O)O)/C(=C/c1ccccc1)C(=O)O < 400 nM (not active)

Annotate the compound O=c1ccc2ccc(Oc3ccc(Cl)cc3[N+](=O)[O-])cc2o1 with its measured IC50. < 400 nM (not active)
